Source listed as patent US3975524A.

Catalogue of % inhibition of O.D. values
Tested on: thrombocyte aggregation
ASSAY_PROTOCOL: inhibition of thrombocyte aggregation induced by collagen
Format: cell-based, human
COND: 10^^-5 mol/liter, platelet-rich plasma
State the value with its unit after it.

Please review the entries below; each comes with its answer.
* [O-][S+]1CCN(c2nc(N3CCNCC3)cc3c(Cl)cccc23)CC1 | 100%
* [O-][S+]1CCN(c2nc(N3CCNCC3)cc3ccccc23)CC1 | 80%
* COc1cccc2c(N3CC[S+]([O-])CC3)nc(N3CCNCC3)cc12 | 100%

Then this compound:
Q) // lookup % inhibition of O.D. for c1ccc2c(N3CCSCC3)nc(N3CCNCC3)cc2c1
A) 62%

----------
ASSAY_PROTOCOL: acute toxicity in white mice after oral or intravenous administration
Format: in vivo
COND: mouse, in vivo, iv, observation time 14 days, read-out: LD50
Experimental: 4. The acute toxicities of the compounds were determined in white mice (observation time: 14 days) after oral or intravenous adminstration. The LD50 was calculated from the percentage of animals which died after different doses within the observation time [see Finney et al in Probit Analysis, third Edition, Cambridge (1971)].
MEASURED_PARAMETER: LD50 at 336 h (mg/kg)
Just the number please, in mg/kg, no unit attached.

Q) Report LD50 at 336 h for [O-][S+]1CCN(c2nc(N3CCNCC3)cc3ccccc23)CC1 [B] please.
A) 123

----------
ASSAY_PROTOCOL: acute toxicity in white mice after oral or intravenous administration
Format: in vivo
COND: mouse, in vivo, po, observation time 14 days, read-out: LD50
MEASURED_PARAMETER: LD50 at 336 h (mg/kg)
Reply numerically in mg/kg, unit not repeated.

Q) Can you share its LD50 at 336 h? I mean this compound: [O-][S+]1CCN(c2nc(N3CCNCC3)cc3ccccc23)CC1
A) 940
